Data origin: patent EP4671273A1

biological target: T1, human PD-1 (#PD1-H82E4, AcroBiosystems) (human, UniProt Q15116 25-167); assay: SPR, PD-1 on captured IgG1
T1 construct: bought
T1 sequence (Q15116 25-167 limits assumed): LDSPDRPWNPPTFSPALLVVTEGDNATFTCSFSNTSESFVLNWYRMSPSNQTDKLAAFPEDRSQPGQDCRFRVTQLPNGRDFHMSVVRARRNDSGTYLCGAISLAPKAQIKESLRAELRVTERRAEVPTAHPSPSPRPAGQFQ
Readings of Kd for the listed binders
OUTCOME_MEASURE: Kd (nM)

BINDER: RZL961 (antibody, human IgG1, V domains shown, human IgG1) VH: VQLVQSGAEVKKPGASVKVSCKASGYTFTNFYIHWVRQAPGQGLEWMGSIYPQYGITAYNQKFKDRVTMTVDTSTSTAYMELRSLRSDDTAVYYCARGYSYAMDYWGQGTTVTVSS VL: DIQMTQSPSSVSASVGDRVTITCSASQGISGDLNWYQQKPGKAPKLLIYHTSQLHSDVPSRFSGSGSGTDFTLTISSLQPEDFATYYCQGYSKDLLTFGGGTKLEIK
MEASUREMENT: 1.21
//
BINDER: QGA408 (antibody, human IgG1, V domains shown, human IgG1) VH: VQLVQSGAEVKKPGASVKVSCKASGYTFTNFYIHWVRQAPGQGLEWMGSIYPNYGITAFNQKFKDRVTMTVDTSTSTAYMELRSLRSDDTAVYYCARGYSYAMDYWGQGTTVTVSS VL: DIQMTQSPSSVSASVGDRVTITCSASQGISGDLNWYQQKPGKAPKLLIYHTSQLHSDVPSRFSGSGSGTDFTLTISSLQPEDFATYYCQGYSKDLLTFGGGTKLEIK
MEASUREMENT: 0.48
//
BINDER: BBJ602 (antibody, human IgG1, V domains shown, human IgG1) VH: VQLVQSGAEVKKPGASVKVSCKASGYTFTNFYIHWVRQAPGQGLEWMGSIYPNYGITAYNQKFKDRVTMTVDTSTSTAYMELRSLRSDDTAVYYCARGYSYGMDYWGQGTTVTVSS VL: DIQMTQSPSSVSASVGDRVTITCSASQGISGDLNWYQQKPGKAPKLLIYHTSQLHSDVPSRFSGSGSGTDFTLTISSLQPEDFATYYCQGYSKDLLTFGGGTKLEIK
MEASUREMENT: 18.1
